Test system: rat's blood
Experiment: Anticoagulant activity (blood coagulation time by thrombelastograph)
Conditions: compound 1×10^-4 M, thrombelastogram
Just a reminder that ties go to N: only Blood coagulation time (r+k value) strictly below 20 min counts as Y.

IN: Consider CN(C)CCNC(=O)c1ccc(OC(=O)c2ccc(NC(=N)N)cc2)cc1 . Does its Blood coagulation time (r+k value) lie strictly below 20 min?
OUT: N

***
IN: Consider CC(C)N1CCN(C(=O)c2ccc(OC(=O)c3ccc(NC(=N)N)cc3)cc2)CC1 . Does its Blood coagulation time (r+k value) lie strictly below 20 min?
OUT: N

IN: Consider N=C(N)Nc1ccc(C(=O)Oc2ccc(C(=O)N3CCNCC3)cc2)cc1 . Does its Blood coagulation time (r+k value) lie strictly below 20 min?
OUT: N

IN: Consider CCOC(=O)c1ccc(OC(=O)CCCCCNC(=N)N)cc1 [Reference compound B, reference compound] . Does its Blood coagulation time (r+k value) lie strictly below 20 min?
OUT: Y

IN: Consider CN(C)CCN(C)C(=O)c1ccc(OC(=O)c2ccc(NC(=N)N)cc2)cc1 . Does its Blood coagulation time (r+k value) lie strictly below 20 min?
OUT: N

IN: Consider CN(C)C(=O)COC(=O)Cc1ccc(OC(=O)c2ccc(NC(=N)N)cc2)cc1 [Reference compound A, reference compound] . Does its Blood coagulation time (r+k value) lie strictly below 20 min?
OUT: Y

IN: Consider CN(CCN(C)C(=O)c1ccc(OC(=O)c2ccc(NC(=N)N)cc2)cc1)CC(N)=O . Does its Blood coagulation time (r+k value) lie strictly below 20 min?
OUT: N

IN: Consider N=C(N)Nc1ccc(C(=O)Oc2ccc(C(=O)N3CCN(CC(=O)N4CCCCC4)CC3)cc2)cc1 . Does its Blood coagulation time (r+k value) lie strictly below 20 min?
OUT: Y
